target: Gal4 DNA binding domain fused to the LBD of LXRα in HEK293 cells (Homo sapiens (Human)); assay: LXR luciferase transcriptional reporter gene assay, agonist mode, LXRα; format: cell-based
Sequence (Q13133 209-447): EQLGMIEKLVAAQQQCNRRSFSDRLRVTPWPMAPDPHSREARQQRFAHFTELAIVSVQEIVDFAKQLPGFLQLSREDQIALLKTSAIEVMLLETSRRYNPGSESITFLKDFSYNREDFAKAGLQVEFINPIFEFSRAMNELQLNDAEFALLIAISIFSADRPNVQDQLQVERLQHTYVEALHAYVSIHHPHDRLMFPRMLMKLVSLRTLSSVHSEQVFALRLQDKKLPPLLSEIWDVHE
Value type: Cell LXRα efficacy

• CC(C)[C@@H]1CN(c2ccc(F)c(S(C)(=O)=O)c2)CCN1c1nc2ncccc2s1 = 827 (84) %
• CC(C)[C@@H]1CN(c2ccc(C(F)(F)F)c(S(C)(=O)=O)c2)CCN1C(=O)OC(C)(C)C = 14412 (19) %
• CS(=O)(=O)c1cccc(N2CCN(C[C@@H]3C[C@@H]4[C@H](C3)C4(F)F)[C@@H](c3ccccc3)C2)c1 (single isomer, unassigned) = 2518 (40) %
• C[C@]1(c2ccccc2)CN(c2cccc(S(C)(=O)=O)c2)CCN1Cc1ccc(C(F)(F)F)cc1 (single isomer, unassigned) = 2026 (20) %
• CC(C)COC(=O)N1CCN(c2cccc(S(C)(=O)=O)c2)C[C@H]1C(C)C = 1919 (44) %
• CC(C)[C@@H]1CN(c2cccc(S(C)(=O)=O)c2)CCN1c1ncc(C2CC2)cn1 = 501 (64) %
• CC(C)[C@@H]1CN(c2ccc(F)c(S(C)(=O)=O)c2)CCN1c1ncc(C(F)(F)F)c(C(N)=O)n1 = 2952 (73) %
• CC(C)(O)CC1CN(c2ccc(F)c(S(C)(=O)=O)c2)CCN1c1ccc(C(F)(F)F)cn1 (centres unmarked) = 2456 (78) %
